# Protocol Details: Drug uptake in human HT1080 cells at 1 uM by flow cytometric analysis
# Type: ADME, cell-based
# Recorded Conditions: ht-1080, 1 µM, TDE = time-dependent effect
Property: Drug uptake

CCCCN1/C(=C/C2=C([O-])C(=C\C3=[N+](CCCC)c4ccc(Br)cc4C3(C)C)/C2=O)C(C)(C)c2cc(Br)ccc21
tde
CCCCN1/C(=C/C2=C([O-])C(=C\C3=[N+](CCCC)c4ccc(I)cc4C3(C)C)/C2=O)C(C)(C)c2cc(I)ccc21
tde
CCN1/C(=C/C2=C([O-])C(=C\C3=[N+](CC)c4ccc(Br)cc4C3(C)C)/C2=O)C(C)(C)c2cc(Br)ccc21
tde
CCN1/C(=C/C2=C([O-])C(=C\C3=[N+](CC)c4ccc(I)cc4C3(C)C)/C2=O)C(C)(C)c2cc(I)ccc21
tde
